Could you please report measured IC50 for the items listed next?
- target_under_test: JAK2 (Homo sapiens)
- Sequence (O60674 whole entry): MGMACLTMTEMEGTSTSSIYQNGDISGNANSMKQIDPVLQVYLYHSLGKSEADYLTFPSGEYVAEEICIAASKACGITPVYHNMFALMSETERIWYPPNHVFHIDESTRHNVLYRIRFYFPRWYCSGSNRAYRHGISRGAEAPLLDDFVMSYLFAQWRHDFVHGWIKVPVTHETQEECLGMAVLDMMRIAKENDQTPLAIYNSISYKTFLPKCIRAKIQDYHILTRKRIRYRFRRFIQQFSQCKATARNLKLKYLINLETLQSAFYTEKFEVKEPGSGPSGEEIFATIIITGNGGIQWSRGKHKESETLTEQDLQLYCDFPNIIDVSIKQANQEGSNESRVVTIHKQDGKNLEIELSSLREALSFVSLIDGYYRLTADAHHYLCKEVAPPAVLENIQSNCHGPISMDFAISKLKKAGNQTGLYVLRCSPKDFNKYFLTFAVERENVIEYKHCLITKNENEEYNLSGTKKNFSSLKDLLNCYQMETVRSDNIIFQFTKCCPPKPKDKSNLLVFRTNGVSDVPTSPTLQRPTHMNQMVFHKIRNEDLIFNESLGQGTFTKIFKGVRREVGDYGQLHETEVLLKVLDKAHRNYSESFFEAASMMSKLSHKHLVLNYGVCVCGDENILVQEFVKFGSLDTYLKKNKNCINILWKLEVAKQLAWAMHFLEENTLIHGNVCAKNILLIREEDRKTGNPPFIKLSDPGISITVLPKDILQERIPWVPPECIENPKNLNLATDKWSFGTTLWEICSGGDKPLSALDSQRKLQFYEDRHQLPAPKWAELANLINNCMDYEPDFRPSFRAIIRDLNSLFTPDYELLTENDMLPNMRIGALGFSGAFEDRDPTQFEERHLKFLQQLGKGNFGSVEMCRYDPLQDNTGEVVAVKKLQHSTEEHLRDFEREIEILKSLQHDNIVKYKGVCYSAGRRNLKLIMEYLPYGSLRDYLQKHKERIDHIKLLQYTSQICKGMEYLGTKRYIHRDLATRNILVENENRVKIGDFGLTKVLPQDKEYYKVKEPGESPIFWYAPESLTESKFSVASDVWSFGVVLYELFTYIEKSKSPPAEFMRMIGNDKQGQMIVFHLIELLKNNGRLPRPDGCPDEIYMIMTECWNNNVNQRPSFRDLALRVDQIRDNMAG
- measurement_description: Biochemical potency on JAK2, TR-FRET (LANCE Ultra kinase assay)
- experimental_context: ATP corresponding to Km; cell-free; read-out: JAK2 inhibitory activity (pIC50) (converted)

Req: What does the record list as IC50 for COc1cc2c(cc1-n1nc(C(=O)NCCN3CCC(C(=O)OCCCC#N)CC3)c3cnc(-c4cnn5cccnc45)cc31)OCCN2 ?
Resp: ≤ 5.01 nM

Req: Now consider CCSC(=O)C1CCN(CCNC(=O)c2nn(-c3cc4c(cc3OC)NCCO4)c3cc(-c4cnn5cccnc45)ncc23)CC1 .
Resp: ≤ 5.01 nM

Req: Now consider COc1cc2c(cc1-n1nc(C(=O)NCCN3CCC(C(=O)O[C@@H]4CN(C)C[C@H]4F)CC3)c3cnc(-c4cnn5cccnc45)cc31)OCCN2 (relative stereo) .
Resp: ≤ 5.01 nM

Req: Now consider COc1cc2c(cc1-n1nc(C(=O)NCCN3CCC(C(=O)OC4CN(C)C4)CC3)c3cnc(-c4cnn5cccnc45)cc31)OCCN2 .
Resp: ≤ 5.01 nM

Req: Now consider COc1cc2c(cc1-n1nc(C(=O)NCCN3CCC(C(=O)OCC(C)(C)C#N)CC3)c3cnc(-c4cnn5cccnc45)cc31)OCCN2 .
Resp: ≤ 5.01 nM

Req: Now consider COCCOC(=O)C1CCN(CCNC(=O)c2nn(-c3cc4c(cc3OC)NCCO4)c3cc(-c4cnn5cccnc45)ncc23)CC1 .
Resp: ≤ 5.01 nM

Req: Now consider COc1cc2c(cc1-n1nc(C(=O)NCCN3CCC(C(=O)OCC4CCOCC4)CC3)c3cnc(-c4cnn5cccnc45)cc31)OCCN2 .
Resp: ≤ 5.01 nM

Req: Now consider COc1cc2c(cc1-n1nc(C(=O)NCCN3CCC(C(=O)OCC4(C#N)CC4)CC3)c3cnc(-c4cnn5cccnc45)cc31)OCCN2 .
Resp: ≤ 5.01 nM

Req: Now consider CCOC(=O)C1CN(CCNC(=O)c2nn(-c3cc4c(cc3OC)NCCO4)c3cc(-c4cnn5cccnc45)ncc23)C1 .
Resp: ≤ 5.01 nM

Req: Now consider COc1cc2c(cc1-n1nc(C(=O)NCCN3CCC(C(=O)OCC(C)(C)O)CC3)c3cnc(-c4cnn5cccnc45)cc31)OCCN2 .
Resp: ≤ 5.01 nM

Req: Now consider COc1cc2c(cc1-n1nc(C(=O)NCCN3CCC(C(=O)O[C@@H]4CCN(C)C4)CC3)c3cnc(-c4cnn5cccnc45)cc31)OCCN2 .
Resp: ≤ 5.01 nM

Req: Now consider CCC(C)OC(=O)C1CCN(CCNC(=O)c2nn(-c3cc4c(cc3OC)NCCO4)c3cc(-c4cnn5cccnc45)ncc23)CC1 (stereo not shown) .
Resp: ≤ 5.01 nM

Req: Now consider CCOC(=O)C1CCN(CCNC(=O)c2nn(-c3cc4c(cc3OC)NCCC4)c3cc(-c4cnn5cccnc45)ncc23)CC1 .
Resp: 5.01 to 50.1 nM

Req: Now consider COc1cc2c(cc1-n1nc(C(=O)NCCN3CC[C@@H](C(=O)OCC(C)(C)C#N)C3)c3cnc(-c4cnn5cccnc45)cc31)OCCN2 .
Resp: ≤ 5.01 nM

Req: Now consider COC(=O)[C@@H]1CCN(CCNC(=O)c2nn(-c3cc4c(cc3OC)NCCO4)c3cc(-c4cnn5cccnc45)ncc23)C1 .
Resp: ≤ 5.01 nM

Req: Now consider CCOC(=O)C1CCN(CCOC(=O)Nc2nn(-c3cc4c(cc3OC)NCCO4)c3cc(-c4cnn5cccnc45)ncc23)CC1 .
Resp: ≤ 5.01 nM

Req: Now consider COc1cc2c(cc1-n1nc(C(=O)NCCN3CCC(C(=O)OCC(F)(F)F)CC3)c3cnc(-c4cnn5cccnc45)cc31)OCCN2 .
Resp: ≤ 5.01 nM

Req: Now consider CCOC(=O)COC(=O)Nc1nn(-c2cc3c(cc2OC)NCCO3)c2cc(-c3cnn4cccnc34)ncc12 .
Resp: ≤ 5.01 nM

Req: Now consider COCC(C)(C)OC(=O)C1CCN(CCNC(=O)c2nn(-c3cc4c(cc3OC)NCCO4)c3cc(-c4cnn5cccnc45)ncc23)CC1 .
Resp: ≤ 5.01 nM

Req: Now consider COc1cc2c(cc1-n1nc(C(=O)NCCN3CCC(C(=O)OCC4CN(C)CCO4)CC3)c3cnc(-c4cnn5cccnc45)cc31)OCCN2 (stereo not shown) .
Resp: ≤ 5.01 nM

Req: Now consider COc1cc2c(cc1-n1nc(C(=O)NCCN3CCC(C(=O)OC4CC(C#N)C4)CC3)c3cnc(-c4cnn5cccnc45)cc31)OCCN2 (stereo not shown) .
Resp: ≤ 5.01 nM

Req: Now consider CCOC(=O)C1(F)CCN(CCNC(=O)c2nn(-c3cc4c(cc3OC)NCCO4)c3cc(-c4cnn5cccnc45)ncc23)CC1 .
Resp: ≤ 5.01 nM

Req: Now consider COC(=O)[C@H]1CCN(CCNC(=O)c2nn(-c3cc4c(cc3OC)NCCO4)c3cc(-c4cnn5cccnc45)ncc23)C1 .
Resp: ≤ 5.01 nM

Req: Now consider COc1cc2c(cc1-n1nc(C(=O)NCCN3CCC(CC(=O)OCC(C)(C)O)CC3)c3cnc(-c4cnn5cccnc45)cc31)OCCN2 .
Resp: ≤ 5.01 nM

Req: Now consider CCOC(=O)[C@H]1C[C@@H](OC(=O)Nc2nn(-c3cc4c(cc3OC)NCCO4)c3cc(-c4cnn5cccnc45)ncc23)C1 .
Resp: ≤ 5.01 nM
